Kindly state Encapsulation Efficiency % for each of the entries shown.
Experiment: Encapsulation efficiency (EE %) by fluorescence based Ribogreen assay
Format: physicochemical
Conditions: Table 1; LNP lipid:DSPC:Cholesterol:DMG-PEG2k 50:10:38.5:1.5 mol %; hEPO mRNA; N:P 6
Give bare numbers, in %.

Solved cases (7 shown):
Lab note: measured Encapsulation Efficiency % of CCCCCCCCCC(=O)OCCN(CCOC(=O)CCCCCCCCC)C(=O)C(N)CO (centres unmarked) was 89.8

Lab note: measured Encapsulation Efficiency % of CCCCCCCCCC(=O)OCCN(CCOC(=O)CCCCCCCCC)C(=O)C(N)Cc1c[nH]cn1 (centres unmarked) was 95.2

Lab note: measured Encapsulation Efficiency % of CCCCCCCC/C=C\CCCCCCCC(=O)OCCN(CCOC(=O)CCCCCCC/C=C\CCCCCCCC)C(=O)C(N)Cc1c[nH]cn1 (centres unmarked) was 99.4

Lab note: measured Encapsulation Efficiency % of CCCCCCCCC(CCCCCC)C(=O)OCCN(CCOC(=O)C(CCCCCC)CCCCCCCC)C(=O)C(N)Cc1c[nH]cn1 (centres unmarked) was 99.7

Lab note: measured Encapsulation Efficiency % of CCCCCCCCCCCC(=O)OCCN(CCOC(=O)CCCCCCCCCCC)C(=O)CN was 97.5

Lab note: measured Encapsulation Efficiency % of CCCCCCCCCCCC(=O)OCCN(CCOC(=O)CCCCCCCCCCC)C(=O)C(N)Cc1c[nH]cn1 (centres unmarked) was 89.5

Lab note: measured Encapsulation Efficiency % of CCCCCCCCCC(=O)OCCN(CCOC(=O)CCCCCCCCC)C(=O)C(C)N (centres unmarked) was 98

---
Lab note: measured Encapsulation Efficiency % of CCCCCCCCCCCC(=O)OCCN(CCOC(=O)CCCCCCCCCCC)C(=O)C(N)CO (centres unmarked) was 90.5
